assayed_target: Peroxisome proliferator-activated receptor gamma (Homo sapiens, UniProt P37231)
Sequence (P37231 whole entry): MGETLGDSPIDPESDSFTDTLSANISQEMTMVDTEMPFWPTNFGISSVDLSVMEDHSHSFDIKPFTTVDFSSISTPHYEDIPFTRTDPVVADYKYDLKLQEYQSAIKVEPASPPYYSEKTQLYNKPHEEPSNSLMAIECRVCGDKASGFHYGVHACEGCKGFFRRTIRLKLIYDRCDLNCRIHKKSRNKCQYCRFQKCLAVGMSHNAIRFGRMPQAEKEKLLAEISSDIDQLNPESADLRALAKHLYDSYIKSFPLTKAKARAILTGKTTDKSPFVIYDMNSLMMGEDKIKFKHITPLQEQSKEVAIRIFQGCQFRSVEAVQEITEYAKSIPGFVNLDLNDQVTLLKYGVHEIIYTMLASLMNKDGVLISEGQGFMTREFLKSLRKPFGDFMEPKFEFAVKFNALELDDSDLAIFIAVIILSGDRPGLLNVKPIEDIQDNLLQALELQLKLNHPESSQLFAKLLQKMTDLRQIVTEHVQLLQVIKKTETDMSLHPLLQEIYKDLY
test_description: Transactivation of Gal4 fused human PPARgamma LBD expressed in African green monkey COS7 cells after 42 hrs by dual luciferase reporter gene assay
Assay type: cell-based
settings: read-out: EC50
pEC50: −log10 of the molar value.
measured_endpoint: pEC50

// known answers, use as guide
[
  {
    "molecule": "CCCc1nc2ccc(-c3ccccc3Cl)cc2n1Cc1ccc(-c2ccccc2C(=O)O)cc1",
    "pEC50": 5.86
  },
  {
    "molecule": "CCCc1nc2ccc(-c3ccc(O)cc3)cc2n1Cc1ccc(-c2ccccc2C(=O)O)cc1",
    "pEC50": 5.53
  },
  {
    "molecule": "CCCc1nc2c(C)cc(-c3nc4ccccc4n3C)cc2n1Cc1ccc(-c2ccccc2C(=O)O)cc1",
    "pEC50": 5.30
  }
]

A = CCCc1nc2cc(-c3cccc(OC)c3)ccc2n1Cc1ccc(-c2ccccc2C(=O)O)cc1
B = CCCc1nc2cc(-c3ccc(O)cc3)ccc2n1Cc1ccc(-c2ccccc2C(=O)O)cc1
Pick one, A or B : lowest reported pEC50. Answer by quoting the chosen item's label.
B
